Provenance of the data: the array DNA melting data of Ke et al. (doi:10.1101/2024.01.08.574731)

# experimental_protocol: melting temperature; fluorescence melt of hairpins on a sequencing array, two-state fit, raised by 9.35 °C to match UV melts
# condition_label: sodium 0.088 M
recorded_endpoint: Tm (°C)
Use °C as the unit, but write only the number.

Entry under review: GAGGCAACGAAAGTTCTC (((..(((....)))))) . Reported Tm?
24.4

Entry under review: GATCTTCTTCAAGATC ((((((....)))))) . Reported Tm?
43.5

Entry under review: GATCAACTGTTGATC ((((((...)))))) . Reported Tm?
44.2

Entry under review: CGTCTCGGAAACGATACG (((.(((....))).))) . Reported Tm?
42.9

Continuing:
Entry under review: GATCTATTGTAGATC ((((((...)))))) . Reported Tm?
41

Entry under review: GGGAGGGGAAACCCCCCC (((.(((....))).))) . Reported Tm?
53.3

Entry under review: GCGGTTTGCCGC ((((....)))) . Reported Tm?
60.6

Entry under review: GTTTGGGGAAACTCGAAC (((.(.(....).).))) . Reported Tm?
30.8

Entry under review: CGGGCACGGAAACGTCCG (((..(((....)))))) . Reported Tm?
38.9

Entry under review: GTCACGGCGAAAGCCGAC (((..(((....)))))) . Reported Tm?
27.9

Entry under review: GATTACGAAAGTAGATC ((((((....))).))) . Reported Tm?
29

Entry under review: GGAGTTGGAAACAATTCC (((.(((....))).))) . Reported Tm?
43

Entry under review: GTTACGGGAAACCGTAAC (((((((....))))))) . Reported Tm?
60.5

Entry under review: GGGAGGGGAAACCCTCTC (.(((((....))))).) . Reported Tm?
52.2

Entry under review: GTAGGCGAAAGCCTCTAC ((((((....)))..))) . Reported Tm?
36.4

Entry under review: GATCGCCCTCGCGATC ((((((....)))))) . Reported Tm?
67.5

Entry under review: GGGTTCGAAAGAAACCC ((((((....))).))) . Reported Tm?
54.4

Entry under review: GACTATGGAAACATAGTC (((((((....))))))) . Reported Tm?
54.5

Entry under review: GAACTGGAAACAGTTC ((((((....)))))) . Reported Tm?
53.9

Entry under review: GCACCTGGAAACAGATGC (((.(((....))).))) . Reported Tm?
44

Entry under review: GCAACCGAAAGGTCCTGC ((((((....)))..))) . Reported Tm?
27.9

Entry under review: GATCTTAACGAAGATC ((((((....)))))) . Reported Tm?
40

Entry under review: GTCAAACGAAAGTTGGAC (((.(((....))).))) . Reported Tm?
49.9
